Test system: SK-LMS-1
assay remarks: relative viability vs DMSO control (72 h) (fraction); higher = more viable cells
applied conditions: 0.00017 µM
measurement label: relative viability
Reply: number alone, nothing else.

Below, 3 molecules whose answers are already recorded.
CC(=O)Nc1cccc(-n2c(=O)n(C3CC3)c(=O)c3c(Nc4ccc(I)cc4F)n(C)c(=O)c(C)c32)c1 :: 1.01
CN1CCC(COc2cnc(-c3cccc(Cn4nc(-c5cccc(C#N)c5)ccc4=O)c3)nc2)CC1 :: 1.06
Cc1nc(NC(=O)N2CCC[C@H]2C(N)=O)sc1-c1ccnc(C(C)(C)C(F)(F)F)c1 :: 1.02

Which relative viability reading was recorded for the molecule `C[C@@H]1COCCN1c1cc(-c2ccnn2C)c2ccnc(-c3ccn[nH]3)c2n1` ?
0.997

src = the supplement of paper PMC10883282
